assay: Acute toxicity in KM mouse assessed as survival at 500 mg/kg, ip measured on day 14 relative to vehicle-treated control; type: organism-based; set-up: dose 500 mg/kg, route intraperitoneal; details: in vivo
Readout name: survival at 14 day
Units required after the number.

Query :: # query: survival at 14 day of entry Cc1cc(=O)oc2cc(OCCOc3no[n+]([O-])c3S(=O)(=O)c3ccccc3)ccc12
Result :: 10%

----------
experiment: Acute toxicity in KM mouse assessed as survival at 225 mg/kg, ip measured on day 14 relative to vehicle-treated control; type: organism-based; set-up: dose 225 mg/kg, route intraperitoneal; conditions: in vivo
Readout name: survival at 14 day (%)
Express the result in % but write the number alone.

Query :: # query: survival at 14 day of entry Cc1cc(=O)oc2cc(OCCOc3no[n+]([O-])c3S(=O)(=O)c3ccccc3)ccc12
Result :: 90

----------
test: Antiproliferative activity against human A2780/CDDP cells after 48 hrs by MTT assay
IC50: recorded values
Express the result in µM but write the number alone.

Below, each entry is followed by its recorded IC50 result.
CCOC(=O)N1CCN(/[N+]([O-])=N/Oc2ccc([N+](=O)[O-])cc2[N+](=O)[O-])CC1 1.05
O=c1ccc2ccc(OCCOc3no[n+]([O-])c3S(=O)(=O)c3ccccc3)cc2o1 0.2
Cc1cc(=O)oc2cc(Oc3no[n+]([O-])c3S(=O)(=O)c3ccccc3)ccc12 3.15
Cc1cc(=O)oc2cc(OCC(=O)OCCOc3no[n+]([O-])c3S(=O)(=O)c3ccccc3)ccc12 7.36
Cc1cc(=O)oc2cc(N(C)CCOc3no[n+]([O-])c3S(=O)(=O)c3ccccc3)ccc12 2.38
CCc1cc(=O)c2ccc(OCCCOc3no[n+]([O-])c3S(=O)(=O)c3ccccc3)cc2o1 0.89
O=c1ccc2ccc(Oc3no[n+]([O-])c3S(=O)(=O)c3ccccc3)cc2o1 3.44
Cc1cc(=O)oc2cc(SCCOc3no[n+]([O-])c3S(=O)(=O)c3ccccc3)ccc12 0.14

Query :: # query: IC50 of entry O=S(=O)(c1ccccc1)c1no[n+]([O-])c1S(=O)(=O)c1ccccc1
Result :: 0.89

Query :: # query: IC50 of entry Cc1cc(=O)oc2cc(OCCCCOc3no[n+]([O-])c3S(=O)(=O)c3ccccc3)ccc12
Result :: 0.99

Query :: # query: IC50 of entry Cc1cc(=O)oc2cc(NCCOc3no[n+]([O-])c3S(=O)(=O)c3ccccc3)ccc12
Result :: 5.45

Query :: # query: IC50 of entry Cc1cc(=O)oc2cc(OCCOc3no[n+]([O-])c3S(=O)(=O)c3ccccc3)ccc12
Result :: 0.062

Query :: # query: IC50 of entry CCc1cc(=O)c2ccc(OCCOc3no[n+]([O-])c3S(=O)(=O)c3ccccc3)cc2o1
Result :: 2.88

----------
tested on: A549; experiment: cells; settings: Homo sapiens, A549, 48 h
Readout name: log10 of IC50 (log10 of the value in nM)
Plainly stated, the numbers are log10 of IC50 given in nM.

Below, each entry is followed by its recorded log10 of IC50 result.
CCOC(=O)N1CCN(/[N+]([O-])=N/Oc2ccc([N+](=O)[O-])cc2[N+](=O)[O-])CC1 3.10
Cc1cc(=O)oc2cc(Oc3no[n+]([O-])c3S(=O)(=O)c3ccccc3)ccc12 3.74
Cc1cc(=O)oc2cc(Sc3cccc(Cl)n3)ccc12 3.51

Query :: log10 of IC50 of Cc1cc(=O)oc2cc(OCCCOc3no[n+]([O-])c3S(=O)(=O)c3ccccc3)ccc12 on A549?
Result :: 2.45

Query :: log10 of IC50 of Cc1cc(=O)oc2cc(OCCOc3no[n+]([O-])c3S(=O)(=O)c3ccccc3)ccc12 on A549?
Result :: 1.38

Query :: log10 of IC50 of O=c1ccc2ccc(OCCOc3no[n+]([O-])c3S(=O)(=O)c3ccccc3)cc2o1 on A549?
Result :: 2.41

Query :: log10 of IC50 of Cc1cc(=O)oc2c(C)c(OCCOc3no[n+]([O-])c3S(=O)(=O)c3ccccc3)ccc12 on A549?
Result :: 3.00

Query :: log10 of IC50 of Cc1cc(=O)oc2cc(OCCCCOc3no[n+]([O-])c3S(=O)(=O)c3ccccc3)ccc12 on A549?
Result :: 2.81

Query :: log10 of IC50 of CCc1cc(=O)c2ccc(Oc3no[n+]([O-])c3S(=O)(=O)c3ccccc3)cc2o1 on A549?
Result :: 3.52

----------
system: MDA-MB-231; assay: Antiproliferative activity against human MDA-MB-231 cells after 48 hrs by MTT assay; settings: MDA-MB-231, 48 h
Readout name: IC50 (nM)
Express the result in nM but write the number alone.

Query :: # query: IC50 of entry Nc1ccn([C@@H]2O[C@H](CO)[C@@H](O)C2(F)F)c(=O)n1 [GEMCITABINE]
Result :: 25

----------
experiment: Acute toxicity in KM mouse assessed as survival at 250 mg/kg, ip measured on day 14 relative to vehicle-treated control; type: organism-based; design: dose 250 mg/kg, route intraperitoneal; details: in vivo
Readout name: survival at 14 day (%)
Express the result in % but write the number alone.

Query :: # query: survival at 14 day of entry Cc1cc(=O)oc2cc(OCCOc3no[n+]([O-])c3S(=O)(=O)c3ccccc3)ccc12
Result :: 60

----------
experiment: Antiproliferative activity against cisplatin-resistant human SKOV3 cells after 48 hrs by MTT assay; details: SK-OV-3, 48 h
Readout name: IC50 (nM)
Express the result in nM but write the number alone.

Query :: # query: IC50 of entry Cc1cc(=O)oc2cc(OCCOc3no[n+]([O-])c3S(=O)(=O)c3ccccc3)ccc12
Result :: 140

----------
tested on: A2780; test: Antiproliferative activity against human A2780 cells after 48 hrs by MTT assay; settings: A2780, 48 h
Just a reminder that ties go to Criterion not met: only IC50 strictly below 300 nM counts as Criterion met.

Some entries whose results are on file:
Cc1cc(=O)oc2cc(OCCCCOc3no[n+]([O-])c3S(=O)(=O)c3ccccc3)ccc12 Criterion not met
Cc1cc(=O)oc2cc(Sc3cccc(Cl)n3)ccc12 Criterion not met
CCc1cc(=O)c2ccc(OCCCOc3no[n+]([O-])c3S(=O)(=O)c3ccccc3)cc2o1 Criterion met

Query :: Answer whether the compound Cc1cc(=O)oc2c(C)c(OCCOc3no[n+]([O-])c3S(=O)(=O)c3ccccc3)ccc12 has IC50 strictly less than 300 nM
Result :: Criterion met

Query :: Answer whether the compound O=C(COc1ccc2ccc(=O)oc2c1)OCCOc1no[n+]([O-])c1S(=O)(=O)c1ccccc1 has IC50 strictly less than 300 nM
Result :: Criterion not met

Query :: Answer whether the compound Cc1cc(=O)oc2c(C)c(Oc3no[n+]([O-])c3S(=O)(=O)c3ccccc3)ccc12 has IC50 strictly less than 300 nM
Result :: Criterion not met

Query :: Answer whether the compound O=c1ccc2ccc(Oc3no[n+]([O-])c3S(=O)(=O)c3ccccc3)cc2o1 has IC50 strictly less than 300 nM
Result :: Criterion met

----------
experiment: Antiproliferative activity against human A2780/CDDP cells after 48 hrs by MTT assay
Readout name: IC50

Below, each entry is followed by its recorded IC50 result.
O=C(COc1ccc2ccc(=O)oc2c1)OCCOc1no[n+]([O-])c1S(=O)(=O)c1ccccc1 > 20000 nM
Cc1cc(=O)oc2cc(Sc3cccc(Cl)n3)ccc12 1000 nM
Cc1cc(=O)oc2cc(OCCCOc3no[n+]([O-])c3S(=O)(=O)c3ccccc3)ccc12 360 nM
Cc1cc(=O)oc2c(C)c(Oc3no[n+]([O-])c3S(=O)(=O)c3ccccc3)ccc12 > 20000 nM
Cc1cc(=O)oc2c(C)c(OCCOc3no[n+]([O-])c3S(=O)(=O)c3ccccc3)ccc12 330 nM

Could you now consider this next molecule?
Query :: # query: IC50 of entry CCc1cc(=O)c2ccc(Oc3no[n+]([O-])c3S(=O)(=O)c3ccccc3)cc2o1
Result :: 2990 nM

----------
IC50: recorded values
test system: A549; assay: cells; details: Homo sapiens, A549, 48 h
Express the result in µM but write the number alone.

Cc1cc(=O)oc2c(C)c(Oc3no[n+]([O-])c3S(=O)(=O)c3ccccc3)ccc12 11.7
O=c1ccc2ccc(Oc3no[n+]([O-])c3S(=O)(=O)c3ccccc3)cc2o1 8.86
Cc1cc(=O)oc2cc(SCCOc3no[n+]([O-])c3S(=O)(=O)c3ccccc3)ccc12 0.12

Could you now consider this next compound?
Query :: IC50 of O=S(=O)(c1ccccc1)c1no[n+]([O-])c1S(=O)(=O)c1ccccc1 on A549?
Result :: 2.35
